# test_target: T1, TNFR1 (Homo sapiens, UniProt P19438)
# T1 chain: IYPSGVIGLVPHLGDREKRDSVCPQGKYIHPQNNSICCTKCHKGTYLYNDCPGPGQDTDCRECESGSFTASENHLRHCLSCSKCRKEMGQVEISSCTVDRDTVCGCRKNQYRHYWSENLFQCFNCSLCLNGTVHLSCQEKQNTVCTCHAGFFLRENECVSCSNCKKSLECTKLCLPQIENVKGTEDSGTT
# test_protocol: yeast display SC50
measurement_type: apparent Kd (screen) (nM)
Note: unit nM is implicit; provide only the numeric part.

## Input Consider the binder shown here: E7V (designed binder) SMEEEVVKAAKEYEKKKKEAIEKHLEKLKAKDKEAAERFLKELEEAAKEYAKDEAKTMSEEEAKRRAKKYKEKVLLSELSEEEQKEIKEAEEKLVRTILKYVEEAAK What is its recorded apparent Kd (screen)?
## Output 7.78

## Input Consider the binder shown here: A55Q (designed binder) SMEEEVEKAAKEYEKKKKEAIEKHLEKLKAKDKEAAERFLKELEEAAKEYAKDEQKTMSEEEAKRRAKKYKEKVLLSELSEEEQKEIKEAEEKLVRTILKYVEEAAK What is its recorded apparent Kd (screen)?
## Output 1.54

## Input Consider the binder shown here: L43R (designed binder) SMEEEVEKAAKEYEKKKKEAIEKHLEKLKAKDKEAAERFLKEREEAAKEYAKDEAKTMSEEEAKRRAKKYKEKVLLSELSEEEQKEIKEAEEKLVRTILKYVEEAAK What is its recorded apparent Kd (screen)?
## Output 13.8

## Input Consider the binder shown here: R65T (designed binder) SMEEEVEKAAKEYEKKKKEAIEKHLEKLKAKDKEAAERFLKELEEAAKEYAKDEAKTMSEEEAKTRAKKYKEKVLLSELSEEEQKEIKEAEEKLVRTILKYVEEAAK What is its recorded apparent Kd (screen)?
## Output 2.05
